Experiment: Test 2: blood pressure depression up to 24 hours and duration until 50% recovery, oral
Format: in vivo, Male, spontaneously hypertension-developing rats
Settings: Rattus norvegicus; 7h after oral administration; percent based on that before administration (100); read-out: Depression value (%) of blood pressure, 7h
measurement type: response vs control in vivo at 25 mg/kg (%)

>>> print(df.to_string())
                                   compound  assay_result
0  COC(=O)C1=C(C)NC(C)=C(C(=O)OCCN(C)Cc2ccccc2)C1c1cc(C#N)ccn1 (centres unmarked) [(3)]            82
1  COC(=O)C1=C(C)NC(C)=C(C(=O)OCCN(C)Cc2ccccc2)C1c1cccc(Cl)n1 (centres unmarked) [(7)]            93
2  COC(=O)C1=C(C)NC(C)=C(C(=O)OCCN(C)Cc2ccccc2)C1c1cccnc1C(F)(F)F (centres unmarked) [(13)]            71
3  COC(=O)C1=C(C)NC(C)=C(C(=O)OCCN(C)Cc2ccccc2)C1c1cccc(C(F)(F)F)n1 (centres unmarked) [(9)]           104
4  COC(=O)C1=C(C)NC(C)=C(C(=O)OCCN(C)Cc2ccccc2)C1c1ccc(C#N)nc1 (centres unmarked) [(15)]            89
5  COC(=O)C1=C(C)NC(C)=C(C(=O)OCCN(C)Cc2ccccc2)C1c1cccc(C#N)n1 (centres unmarked) [Example 1]            88
6  COC(=O)C1=C(C)NC(C)=C(C(=O)OCCN(C)Cc2ccccc2)C1c1ccnc(F)c1 (centres unmarked) [(16)]            98
7  COC(=O)C1=C(C)NC(C)=C(C(=O)OCCN(C)Cc2ccccc2)C1c1cccc([N+](=O)[O-])n1 (centres unmarked) [(10)]           110
